test: Water solubility analysis by HPLC; type: physicochemical

| input-smiles | unit-tag | solubility at 1 h |
| --- | --- | --- |
| Cc1cc(=O)c2c(C)cc3c(c2o1)[C@@H](OC(=O)[C@@]12CC[C@@](C)(C(=O)O1)C2(C)C)[C@@H](OC(=O)[C@@]12CC[C@@](C)(C(=O)O1)C2(C)C)C(C)(C)O3 | µg/mL | 5.2 |

Recorded values, source paper PMC2954496.
